Test: Solubility of dexamethasone in microemulsion formulations
Type: physicochemical
Settings: phosphate-buffered saline (PBS), aqueous with cosolvent or surfactant or cyclodextrin, equilibrium from dmso stock; PBS alone, room temperature, 8-9 days; read-out: Solubility of DXM
Protocol: The solubility of dexamethasone (DXM) in the microemulsion formulations was studied. To formulations containing 0.1%, 0.5%, 1%, or 5% of the sacha inchi seed oil, DXM ([…] stock in dimethyl sulfoxide, DMSO) was added at concentrations of […] in triplicate. […] The test vials were incubated at room temperature with continuous shaking (90 rpm) for 8-9 days until equilibrium. […]
Parameter Measured: solubility

Query block: I have this compound here, C[C@@H]1C[C@H]2[C@@H]3CCC4=CC(=O)C=C[C@]4(C)[C@@]3(F)[C@@H](O)C[C@]2(C)[C@@]1(O)C(=O)CO [DXM, Dexamethasone] , and I need its recorded solubility.
Result block: ~250 µg/mL
